Measured IC50 on UniProt P10635 follows.
Sequence (P10635 whole entry): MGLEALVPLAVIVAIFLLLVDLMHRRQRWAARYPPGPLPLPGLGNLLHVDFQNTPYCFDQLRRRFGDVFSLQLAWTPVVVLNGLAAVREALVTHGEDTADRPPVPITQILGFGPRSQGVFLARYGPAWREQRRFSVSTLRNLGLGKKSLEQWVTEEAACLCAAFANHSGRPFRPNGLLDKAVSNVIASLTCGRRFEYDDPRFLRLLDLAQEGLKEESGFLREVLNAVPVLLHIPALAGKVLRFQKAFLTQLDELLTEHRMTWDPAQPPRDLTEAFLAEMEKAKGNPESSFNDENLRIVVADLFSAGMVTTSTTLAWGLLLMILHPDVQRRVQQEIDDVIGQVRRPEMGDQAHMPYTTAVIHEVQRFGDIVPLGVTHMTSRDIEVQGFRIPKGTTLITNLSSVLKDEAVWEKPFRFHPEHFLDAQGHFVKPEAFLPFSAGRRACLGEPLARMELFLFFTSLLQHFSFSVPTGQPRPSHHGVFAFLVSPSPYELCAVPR
Response body: numeric value in µM, unit text excluded.

Example entries and their recorded answers appear below.
{"columns": ["compound", "IC50 [µM]"],
 "data": [
  ["C[C@H](c1ccc(F)cc1)n1cncc1CN1CCN(S(=O)(=O)c2cnc(N3CCN4C[C@H](O)CC[C@H]4C3)s2)CC1 [Compound 19]", 7.01],
  ["C[C@H](c1ccc(F)cc1)n1cncc1CC1(C#N)CCN(S(=O)(=O)c2cnc(N3CCN(C)CC3)s2)CC1 [Compound 48]", 2.85]
]}

Could you share what IC50 was measured for CN1CCN(c2ncc(S(=O)(=O)N3CCN(Cc4cncn4CCOc4ccc(F)cn4)CC3)s2)CC1 [Compound 33] , tested on UniProt P10635? 4.8
